Target: Myeloperoxidase (Homo sapiens)
Sequence (P05164 165-273 limits assumed): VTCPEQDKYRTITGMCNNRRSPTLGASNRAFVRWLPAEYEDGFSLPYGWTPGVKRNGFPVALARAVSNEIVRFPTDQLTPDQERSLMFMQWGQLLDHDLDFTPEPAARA
Sequence (P05164 279-745 limits assumed): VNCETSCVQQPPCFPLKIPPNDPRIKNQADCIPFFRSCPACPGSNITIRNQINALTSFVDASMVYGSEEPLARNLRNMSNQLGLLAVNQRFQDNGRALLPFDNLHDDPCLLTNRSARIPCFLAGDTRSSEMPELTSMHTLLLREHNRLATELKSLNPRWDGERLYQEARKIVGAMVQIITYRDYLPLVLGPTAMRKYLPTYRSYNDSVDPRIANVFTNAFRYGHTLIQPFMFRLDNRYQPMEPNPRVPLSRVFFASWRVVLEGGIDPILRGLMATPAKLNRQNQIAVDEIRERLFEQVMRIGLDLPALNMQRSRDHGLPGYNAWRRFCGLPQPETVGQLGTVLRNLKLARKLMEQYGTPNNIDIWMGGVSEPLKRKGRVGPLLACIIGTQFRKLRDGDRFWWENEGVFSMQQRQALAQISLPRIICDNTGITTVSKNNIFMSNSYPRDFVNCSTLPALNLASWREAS
Test: ChEBML_223053
reported-property: EC50

1) Cc1cc(N)c2cc(NC(=O)Nc3ccc4nc(C)cc(N)c4c3)ccc2n1 [Aminoquinuride]: < 3 µM
